All values here come from patent US20260193366A1.

Recorded KD Relative to Dupilumab, one value per entry.
Biological target: T1, human IL-4Rα (human, UniProt P24394 26-232)
T1 construct: also called Hu IL-4Rα; hIL-4Rα
T1 sequence: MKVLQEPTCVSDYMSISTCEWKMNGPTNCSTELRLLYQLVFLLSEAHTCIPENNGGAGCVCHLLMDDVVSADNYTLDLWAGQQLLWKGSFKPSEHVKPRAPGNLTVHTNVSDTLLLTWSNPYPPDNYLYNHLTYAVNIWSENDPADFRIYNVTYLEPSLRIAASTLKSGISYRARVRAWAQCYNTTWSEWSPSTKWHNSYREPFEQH
Assay: SPR, Carterra LSA;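 further: antibodies captured on an anti-human Fc sensor chip, antigen injected at several concentrations, association and dissociation rates fitted with a 1:1 Langmuir model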
Number only, please.

Please review the entries below; each comes with its answer.
INSERT INTO measurements (binder, test_result) VALUES
  ('Construct 21 (mAb429) (antibody, IgG4, V domains shown, VH/VL only) VH: EVQLVESGGGLEQPGGSLRLSCAGSGFTFRTYAMTWVRQAPGKGLEWVSSISGSGGNIYYADSVKGRFTISRDNSKNTLYLQMNSLRAEDTAVYYCAKDRVSIYVRPRYYGLDVWGQGTTVTVSS VL: DIVMTQSPLSLPVTPGEPASISCTASQSLLYSIGYNYVDWYLQKSGQSPQLLIYLGSKRASGVPDRFSGSGSGTDFTLKISRVEAEDVGFYYCMQSLTSPYTFGQGTKLEIK', 0.76),
  ('Construct 33 (mAb450) (antibody, IgG4, V domains shown, VH/VL only) VH: EVQLVESGGGLEQPGGSLRLSCAGSGFTFRDFAMTWVRQAPGKGLEWVSSISGSGGNIYYADSVKGRFTISRDNSKNTLYLQMNSLRAEDTAVYYCAKDRVSITIRPRYYGLDVWGQGTTVTVSS VL: DIVMTQSPLSLPVTPGEPASISCTASQSLLYSIGYNYVDWYLQKSGQSPQLLIYLGSKRASGVPDRFSGSGSGTDFTLKISRVEAEDVGFYYCMQALGSPYTFGQGTKLEIK', 0.78);

Problem: Reported KD Relative to Dupilumab, binder Construct 29 (mAb437) (antibody, IgG4, V domains shown, VH/VL only) VH: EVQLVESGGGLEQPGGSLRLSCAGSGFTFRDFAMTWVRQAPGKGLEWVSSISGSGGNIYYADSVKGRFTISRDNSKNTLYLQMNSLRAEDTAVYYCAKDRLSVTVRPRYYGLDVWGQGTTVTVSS VL: DIVMTQSPLSLPVTPGEPASISCTSSQSLLYSIGYNYVDWYLQKSGQSPQLLIYLGNKRASGVPDRFSGSGSGTDFTLKISRVEAEDVGFYYCMQSLTSPYTFGQGTKLEIK : ____
Solution: 0.72
